Origin of the recorded values: patent US5385831A

- assaySystem: GluG R encoded by clone 45-A (Rattus norvegicus, UniProt P23385)
- Sequence (P23385 19-1199): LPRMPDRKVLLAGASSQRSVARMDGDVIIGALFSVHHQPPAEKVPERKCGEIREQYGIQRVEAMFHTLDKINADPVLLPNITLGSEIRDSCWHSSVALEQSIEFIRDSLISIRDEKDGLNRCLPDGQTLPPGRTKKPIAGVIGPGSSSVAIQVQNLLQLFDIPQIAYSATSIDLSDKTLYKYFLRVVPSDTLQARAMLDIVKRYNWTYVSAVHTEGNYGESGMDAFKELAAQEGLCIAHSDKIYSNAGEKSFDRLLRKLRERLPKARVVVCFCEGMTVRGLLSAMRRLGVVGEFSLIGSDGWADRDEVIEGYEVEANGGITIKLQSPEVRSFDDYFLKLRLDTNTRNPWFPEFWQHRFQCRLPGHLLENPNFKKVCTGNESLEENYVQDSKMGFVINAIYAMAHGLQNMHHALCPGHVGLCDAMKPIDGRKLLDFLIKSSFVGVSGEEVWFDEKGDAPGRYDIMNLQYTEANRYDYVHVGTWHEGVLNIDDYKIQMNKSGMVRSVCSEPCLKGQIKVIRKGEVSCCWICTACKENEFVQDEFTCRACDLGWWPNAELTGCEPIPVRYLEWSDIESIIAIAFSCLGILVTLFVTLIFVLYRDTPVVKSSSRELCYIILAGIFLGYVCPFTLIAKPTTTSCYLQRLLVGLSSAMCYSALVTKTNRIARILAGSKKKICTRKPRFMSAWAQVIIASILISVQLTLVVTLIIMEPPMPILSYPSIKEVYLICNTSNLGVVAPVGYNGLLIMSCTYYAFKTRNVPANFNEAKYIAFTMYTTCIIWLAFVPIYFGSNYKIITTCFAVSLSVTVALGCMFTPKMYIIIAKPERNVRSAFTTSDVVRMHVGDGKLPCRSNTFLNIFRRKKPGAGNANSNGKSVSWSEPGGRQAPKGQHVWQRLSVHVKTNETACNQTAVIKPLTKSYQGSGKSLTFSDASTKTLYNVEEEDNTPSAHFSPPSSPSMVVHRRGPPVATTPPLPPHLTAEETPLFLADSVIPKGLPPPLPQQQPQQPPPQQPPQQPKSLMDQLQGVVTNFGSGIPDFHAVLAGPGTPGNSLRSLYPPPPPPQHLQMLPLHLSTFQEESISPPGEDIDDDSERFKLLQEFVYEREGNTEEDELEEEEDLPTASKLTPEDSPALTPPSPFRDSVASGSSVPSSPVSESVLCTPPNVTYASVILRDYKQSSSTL
- measurementSetup: read-out: Glutamate Analog Potencies (EC50); Xenopus oocytes injected with 45-A RNA; responses normalized to subsequent response to 100 μM L-glutamic acid
measuredQuantity: EC50 (µM)
A number alone suffices; assume µM.

What EC50 value was documented for this compound, N[C@H](C(=O)O)c1cc(=O)[nH]o1 [Ibotenic acid, ibotenic acid] ?
32.4
